Each recorded value in this set is attributed to PubChem BioAssay (NCI).

# System: KM12 colon
# run-description: NCI tumour cell line growth inhibition, 48 h
recorded-endpoint: TGI

molecule	TGI
CCn1c(-c2nonc2N)nc2cncc(C(=O)NCCNC)c21	> 25 µM
COc1ccc2nc3cc([N+](=O)[O-])ccc3c(Nc3ccc(S(=O)(=O)N=C(N)N)cc3)c2c1	57.5 µM
CS/C(=N\S(=O)(=O)c1cc(C)c(Cl)cc1Cl)NNc1cnc2ccccc2n1	> 100 µM
OCC1OC2OC3C(CO)OC(OC4C(CO)OC(OC5C(CO)OC(OC6C(CO)OC(OC7C(CO)OC(OC1C(O)C2O)C(O)C7O)C(O)C6O)C(O)C5O)C(O)C4O)C(O)C3O (stereo not drawn) (tested in a mixture with another compound)	> 100 µM
Cc1c(-c2nnc(-c3ccc(F)cc3)o2)nnn1-c1ccnc2c(C(F)(F)F)cccc12	> 100 µM
CC1=NN(c2cccc(Cl)c2)C(=N/c2nc3ccccc3s2)/C1=C\c1cccs1	> 100 µM
CSC1=Nc2c(c(C)c(C)n2COC(CO)CO)C2=NC(=O)CC(C)N12 (stereo not drawn)	> 100 µM

Lab note: next molecule to report on.
Query: // map Cc1ccc(-c2nc(N)c(C#N)c3c2CCOc2c-3ccc3ccccc23)cc1 to recorded TGI (system: KM12 colon)
Reply: 48.6 µM
